system: HIV-1 (isolated standard virus Z2Z6) in PM1 cells; assay: Anti-HIV evaluation in HIV-1-infected PM1 lymphocytic cell culture, cell viability read by MTT technique; type: cell-based; conditions: 10^4 cells/well, infected with HIV-1 isolate Z2Z6 at MOI 0.002, MTT cellular viability on 6th day after infection, cut-off 50% of emission of uninfected cells
ASSAY READOUT: IC50

Data request, read-out IC50, for CC(O)C(C)O (stereo not shown) [Compound 11b]
> 100 µM
